System: A498 renal
assay_remarks: NCI-60 one-dose screen, 48 h
measurement_setup: 10 µM unless noted
This is part of a sample that, as a whole, favours compounds with a hit. Of some 83,000 tested, about 20% had one in any assay. Active and inactive are the calls of the source. How the source made its calls: active means growth percent below 10; inactive means the rest.
Answer with one of the outcomes given here: yes (active), no (inactive)

compound	label_class
O=C(O)c1cn(C2CC2)c2cc(N3CCN(C(=O)N/N=C/c4ccccc4)CC3)c(F)cc2c1=O	no

Q) For `CCCCCCCCn1ccc2cc(NC(=O)Cn3cc(CN4CCC(C)CC4)nn3)ccc21` , what call appears in the results of this test?
A) no

Q) Here is the next compound: `COc1ccc(-c2ccc(-c3ccc(C(=N)N)cn3)s2)cc1`
A) no

Q) Here is the next compound: `CCOC(=O)N1CCN(S(=O)(=O)c2oc(-c3ccc(Cl)cc3)nc2C#N)CC1`
A) no

Q) Here is the next compound: `N=C(N)c1ccc(-c2ccc(-c3ccc(Cl)cc3Cl)s2)cc1F`
A) no

Q) Here is the next compound: `CCCCCCCCCCCCCCCCCCOc1ccccc1CC(=O)OCC[N+]1(C)CCOCC1`
A) no

Q) Here is the next compound: `O=C(c1ccc(F)c(Cl)c1)N1c2ccccc2Sc2ccccc21`
A) no

====

The compounds listed here are annotated with their growth.
System: K-562 leukemia
assay_remarks: NCI-60 one-dose screen, 48 h (100 = growth as untreated, 0 = no growth, -100 = all killed)
measurement_setup: 10 µM unless noted
Protocol: Cells are grown in 96 well plates and exposed to the test compound for 48 hours. Compounds are tested at a single concentration, which is 10^-5 M for most compounds. The reported endpoint is percent growth (GI% or GIPRCNT), where numbers from 0 - 100% represent growth inhibition, and numbers from -100% - 0 represent cell death. For example, a value of 40 represents 60% growth inhibition. A value of 0 means no net growth occurred over the course of the experiment. […]
This is part of a sample that, as a whole, favours compounds with a hit. Of some 83,000 tested, about 20% had one in any assay.
State the answer as a number, implicitly in %.

# count of solved cases: 2
compound	attribute_measured	reported_result
CC(=O)N(Cc1ccccc1)c1nc2ccc(O)c(CN(C)C)c2s1	growth	92.5
O=C1/C(=C/c2ccc(Br)cc2)COc2ccc(O)c(O)c21	growth	5.3

Note: attention shifts to another entry.
Q) Param item = `Clc1nn2c(Cn3cnc4c(NCc5ccccc5)ncnc43)nnc2c2ccccc12` ; retrieve measured growth.
A) 42.7

====

System: CAKI-1 renal
assay_remarks: NCI-60 one-dose screen, 48 h
measurement_setup: 10 µM unless noted
This is part of a sample that, as a whole, favours compounds with a hit. Of some 83,000 tested, about 20% had one in any assay. Calls of active or inactive are those of the source. The calls were made as follows: active = growth percent below 10; inactive = the rest.
Answer with one of the outcomes given here: active, inactive

Worked examples, 4 compounds total:
compound	assay_system	label_class
C#Cc1cccc(Oc2ccc(NC(=O)CCl)cc2)c1	CAKI-1 renal	inactive
CCCCCCCC/C=C\CCCCCCCCOc1ccc(CC(=O)NCC[N+](C)(C)C)cc1	CAKI-1 renal	inactive
COc1cccc(/C=C2\COc3ccc(O)cc3C2=O)c1	CAKI-1 renal	inactive
O=C1/C(=C/c2ccc(C(F)(F)F)cc2)COc2ccc(O)c(O)c21	CAKI-1 renal	active

Q) For `CCOC(=O)Cn1c(=O)c2c3ccccc3n(C)c2n2nnc(-c3ccccc3)c12` , what call appears in the results of this test?
A) inactive

Q) Here is the next compound: `CCCCSCC(=O)c1ccccc1`
A) inactive

Q) Here is the next compound: `N#C/C(=C\c1ccc(Cl)cc1Cl)C(=O)Nc1ncc(Cc2ccc(Cl)c(Cl)c2)s1`
A) inactive

Q) Here is the next compound: `CCOC(=O)c1ccc2c(c1)c1c(C)c3ccncc3c(C)c1n2C`
A) active

Q) Here is the next compound: `O=C(Nc1ccccc1O)c1ccccc1Nc1ccnc(C(F)(F)F)c1`
A) inactive

Q) Here is the next compound: `CNC(=O)c1cc(Oc2ccc3nc(NC(=O)Nc4ccc(Cl)c(Cl)c4)sc3c2)ccn1`
A) inactive

Q) Here is the next compound: `Cn1c(=O)c2c(nc(NC3=NS(=O)(=O)c4ccccc43)n2Cc2ccccc2)n(C)c1=O`
A) inactive

Q) Here is the next compound: `COc1cccc(Nc2ccnc3[nH]c4ccc([N+](=O)[O-])cc4c23)c1`
A) inactive
